// reported CC50 at 192 h for each item listed
assay-method-text: Cytotoxicity in human HepG2.2.15 cells assessed as reduction in cell viability incubated for 8 days by MTT assay
Type: cell-based, HepG2 2.2.15

Some solved entries appear below for comparison.
INSERT INTO assay_data (smiles_notation, measure_name, recorded_value) VALUES
  ('N#Cc1ccc(Cn2nc(-c3cc(Cl)c(NC[C@H](O)CO)nc3F)c3ccccc3c2=O)cc1', 'CC50 at 192 h', '> 100 µM'),
  ('N#Cc1ccc(Cn2nc(-c3ccc(N)nc3F)c3ccccc3c2=O)cc1', 'CC50 at 192 h', '> 100 µM');

Next up:
response.value for N#Cc1ccc(Cn2nc(-c3cc(Cl)c(NC[C@@H](O)CO)nc3F)c3ccccc3c2=O)cc1 (field: CC50 at 192 h) = > 100 µM
